Cited source: ChEMBL document CHEMBL1129217

System: Mus musculus
protocol text: The compound was evaluated in vivo for spontaneous activity(SA) in a mouse model
Type: functional
assay readout: log10 of ED50 (log10 of the value in µmol/kg)
In plain terms, each number is the log10 of measured ED50 in µmol/kg.

These recorded examples may help you get a feel for the data.
[
  {
    "molecule": "CC1=CC[C@H]2[C@H](C1)c1c(O)cc(C(C)C(C)C3CCCC3)cc1OC2(C)C (some centres not stated)",
    "log10 of ED50": -0.92
  },
  {
    "molecule": "CCCCCCC(C)(C)c1cc(O)c2c(c1)OC(C)(C)[C@@H]1CC=C(CO)C[C@@H]21",
    "log10 of ED50": -2.00
  },
  {
    "molecule": "CCCCCc1cc(O)c2c(c1)OC(C)(C)[C@@H]1CC=C(C)C[C@@H]21 [DELTA-8-TETRAHYDROCANNABINOL]",
    "log10 of ED50": 0.46
  },
  {
    "molecule": "CC1=CC[C@@H]2[C@@H](C1)c1c(O)cc(C(C)C(C)C3CCCC3)cc1OC2(C)C (some centres not stated)",
    "log10 of ED50": -0.35
  },
  {
    "molecule": "CCCCCCC(C)(C)c1cc(O)c2c(c1)OC(C)(C)[C@@H]1CC=C(C)C[C@@H]21",
    "log10 of ED50": -0.57
  }
]

Reading of log10 of ED50 for CC1=CC[C@H]2[C@@H](C1)c1c(O)cc(C(C)C(C)C3CCCC3)cc1OC2(C)C (some centres not stated) with Mus musculus: -1.52

Hey, Mus musculus data for CC1=CC[C@@H]2[C@H](C1)c1c(O)cc(C(C)C(C)C3CCCC3)cc1OC2(C)C (some centres not stated) : log10 of ED50 came out at -1.40
